experiment.description: Pilot pharmacokinetic study after oral administration
Type: in vivo
assay.conditions: male, Balb/c, mouse; mice, oral gavage, 6 mg/kg TQ, plasma
readout.name: Cmax (ng/mL)

- molecule: "CC1=CC(=O)C(C(C)C)=CC1=O [TQ, 2-isopropyl-5-methylbenzo-1,4-quinone]"
  reading: 388

----------
experiment.description: Pilot pharmacokinetic study after oral administration
Format: in vivo
assay.conditions: male, Balb/c, mouse; mice, oral gavage, 6 mg/kg TQ, plasma

- test.smiles: "CC1=CC(=O)C(C(C)C)=CC1=O"
  AUC(0-inf), ng·h/mL: 4670

----------
experiment.description: Pilot pharmacokinetic study after oral administration
Type: in vivo
assay.conditions: male, Balb/c, mouse; mice, oral gavage, 6 mg/kg TQ, plasma, elimination phase first-order fit

- compound: "CC1=CC(=O)C(C(C)C)=CC1=O [TQ, 2-isopropyl-5-methylbenzo-1,4-quinone]"
  half-life, h: 5
